- target_desc: BRG-1 (Homo sapiens)
- Construct: made in house; host or cells: High Five insect cells
- test_name: ATPase catalytic activity of BRG-1, ADP-Glo in vitro biochemical assay
- experimental_context: ATPase catalytic activity, 30 nM BRG-1, 400 μM ATP, read-out: BRG1 IP50 (μM)*
Overview of recorded IC50 for various compounds

# annotated cases, reported IC50 shown
C[C@@H]1CN(c2cccc(-c3csc(NC(=O)CNC(=O)c4ccn(S(C)(=O)=O)c4)n3)c2)CC[C@@H]1O	> 0.01 µM
COC[C@H](NC(=O)c1ccn(S(C)(=O)=O)c1)C(=O)Nc1nc(-c2cccc(-c3ccnc(C)n3)c2)cs1	< 0.01 µM
C[C@H]1CN(c2cccc(-c3csc(NC(=O)CNC(=O)c4ccn(S(C)(=O)=O)c4)n3)c2)C[C@H](C)O1	< 0.01 µM
CS(=O)(=O)n1ccc(C(=O)NCC(=O)Nc2nc(-c3cccc(N4CC(O)C4)c3)cs2)c1	< 0.01 µM
Cc1cc(-c2cccc(-c3csc(NC(=O)CNC(=O)c4ccn(C(C)(C)C)c4)n3)c2)ncn1	< 0.01 µM
Cn1ccc(-c2cccc(-c3csc(NC(=O)CNC(=O)c4ccn(CC(C)(C)O)c4)n3)c2)n1	> 1 µM

Returns the measured IC50 for the input compound. Input: "CC1(C)OCC12CN(c1cccc(-c3csc(NC(=O)CNC(=O)c4ccn(S(C)(=O)=O)c4)n3)c1)C2" > 0.1 µM

Returns the measured IC50 for the input compound. Input: "CS(=O)(=O)n1ccc(C(=O)NCC(=O)Nc2nc(-c3cccc(N4CC[C@H](O)C4)c3)cs2)c1" > 0.01 µM

---

- target_desc: BRM (Homo sapiens, UniProt P51531)
- Construct: made in house; host or cells: High Five insect cells
- Sequence (P51531 whole entry): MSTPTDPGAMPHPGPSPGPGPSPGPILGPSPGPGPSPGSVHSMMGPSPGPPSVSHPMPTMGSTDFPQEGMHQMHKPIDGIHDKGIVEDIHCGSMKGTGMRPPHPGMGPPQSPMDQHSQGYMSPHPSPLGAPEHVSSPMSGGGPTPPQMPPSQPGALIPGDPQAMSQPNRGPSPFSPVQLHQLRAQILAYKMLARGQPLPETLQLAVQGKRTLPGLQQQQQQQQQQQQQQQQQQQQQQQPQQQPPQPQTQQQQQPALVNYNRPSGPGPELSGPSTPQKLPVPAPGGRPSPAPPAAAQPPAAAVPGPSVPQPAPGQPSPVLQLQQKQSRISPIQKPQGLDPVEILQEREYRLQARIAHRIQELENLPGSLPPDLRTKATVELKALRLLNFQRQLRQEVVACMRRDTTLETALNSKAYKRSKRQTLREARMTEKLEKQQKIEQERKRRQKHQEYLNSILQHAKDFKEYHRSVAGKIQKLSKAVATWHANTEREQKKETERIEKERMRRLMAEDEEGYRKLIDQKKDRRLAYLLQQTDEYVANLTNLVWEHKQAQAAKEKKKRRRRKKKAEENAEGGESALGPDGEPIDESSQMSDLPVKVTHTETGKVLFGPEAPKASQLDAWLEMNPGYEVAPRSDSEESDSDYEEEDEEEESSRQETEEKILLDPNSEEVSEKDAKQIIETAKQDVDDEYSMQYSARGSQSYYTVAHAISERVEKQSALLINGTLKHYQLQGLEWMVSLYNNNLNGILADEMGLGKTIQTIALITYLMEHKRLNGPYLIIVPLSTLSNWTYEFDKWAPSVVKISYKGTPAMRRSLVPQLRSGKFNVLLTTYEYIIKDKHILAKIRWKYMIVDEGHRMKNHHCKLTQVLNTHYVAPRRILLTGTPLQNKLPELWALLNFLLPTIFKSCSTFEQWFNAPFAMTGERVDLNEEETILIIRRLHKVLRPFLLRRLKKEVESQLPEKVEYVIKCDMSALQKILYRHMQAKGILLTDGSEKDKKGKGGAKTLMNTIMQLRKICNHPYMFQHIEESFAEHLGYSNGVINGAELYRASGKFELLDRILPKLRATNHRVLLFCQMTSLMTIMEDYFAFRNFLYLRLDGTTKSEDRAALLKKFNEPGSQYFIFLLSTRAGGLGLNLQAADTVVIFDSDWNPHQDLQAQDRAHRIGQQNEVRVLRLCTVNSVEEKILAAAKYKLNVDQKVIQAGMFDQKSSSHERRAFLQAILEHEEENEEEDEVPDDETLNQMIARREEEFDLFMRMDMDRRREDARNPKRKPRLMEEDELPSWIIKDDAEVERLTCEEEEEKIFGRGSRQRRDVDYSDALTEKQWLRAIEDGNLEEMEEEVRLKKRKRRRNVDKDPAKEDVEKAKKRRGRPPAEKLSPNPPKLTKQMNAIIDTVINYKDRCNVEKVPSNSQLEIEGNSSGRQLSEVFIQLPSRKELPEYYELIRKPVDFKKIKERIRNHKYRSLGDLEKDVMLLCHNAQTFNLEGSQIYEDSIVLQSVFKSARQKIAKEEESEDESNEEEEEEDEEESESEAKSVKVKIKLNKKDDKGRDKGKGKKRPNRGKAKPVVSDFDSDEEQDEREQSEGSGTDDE
- test_name: ATPase catalytic activity of BRM, ADP-Glo in vitro biochemical assay
- experimental_context: ATPase catalytic activity, 30 nM BRM, 400 μM ATP, read-out: BRM IP50 (μM)*
Overview of recorded IC50 for various molecules

Returns the measured IC50 for the input molecule. Input: "COC[C@H](NC(=O)c1ccn(C(C)(C)C)c1)C(=O)Nc1nc(-c2ccnc(N3C[C@@H](C)O[C@@H](C)C3)n2)cs1" < 0.01 µM

Returns the measured IC50 for the input molecule. Input: "CO[C@@H]1CCCN(c2cccc(-c3csc(NC(=O)CNC(=O)c4ccn(C(C)(C)C)c4)n3)n2)C1" > 0.01 µM

Returns the measured IC50 for the input molecule. Input: "CS(=O)(=O)n1ccc(C(=O)NCC(=O)Nc2nc(-c3cccc(-c4cnn(C5CC5)n4)c3)cs2)c1" < 0.01 µM

Returns the measured IC50 for the input molecule. Input: "CS(=O)(=O)n1ccc(C(=O)NCC(=O)Nc2nc(-c3cccc(N4CC5(CCCCO5)C4)c3)cs2)c1" > 0.01 µM

Returns the measured IC50 for the input molecule. Input: "CC(C)(C)n1ccc(C(=O)NCC(=O)Nc2nc(-c3ccc4c(c3)OCC4)cs2)c1" > 0.01 µM

Returns the measured IC50 for the input molecule. Input: "CS(=O)(=O)n1ccc(C(=O)NCC(=O)Nc2nc(-c3cccc(C#CC4COC4)c3)cs2)c1" > 0.01 µM

---

- target_desc: BRG-1 (Homo sapiens, UniProt P51532)
- Construct: made in house; host or cells: High Five insect cells
- Sequence (P51532 whole entry): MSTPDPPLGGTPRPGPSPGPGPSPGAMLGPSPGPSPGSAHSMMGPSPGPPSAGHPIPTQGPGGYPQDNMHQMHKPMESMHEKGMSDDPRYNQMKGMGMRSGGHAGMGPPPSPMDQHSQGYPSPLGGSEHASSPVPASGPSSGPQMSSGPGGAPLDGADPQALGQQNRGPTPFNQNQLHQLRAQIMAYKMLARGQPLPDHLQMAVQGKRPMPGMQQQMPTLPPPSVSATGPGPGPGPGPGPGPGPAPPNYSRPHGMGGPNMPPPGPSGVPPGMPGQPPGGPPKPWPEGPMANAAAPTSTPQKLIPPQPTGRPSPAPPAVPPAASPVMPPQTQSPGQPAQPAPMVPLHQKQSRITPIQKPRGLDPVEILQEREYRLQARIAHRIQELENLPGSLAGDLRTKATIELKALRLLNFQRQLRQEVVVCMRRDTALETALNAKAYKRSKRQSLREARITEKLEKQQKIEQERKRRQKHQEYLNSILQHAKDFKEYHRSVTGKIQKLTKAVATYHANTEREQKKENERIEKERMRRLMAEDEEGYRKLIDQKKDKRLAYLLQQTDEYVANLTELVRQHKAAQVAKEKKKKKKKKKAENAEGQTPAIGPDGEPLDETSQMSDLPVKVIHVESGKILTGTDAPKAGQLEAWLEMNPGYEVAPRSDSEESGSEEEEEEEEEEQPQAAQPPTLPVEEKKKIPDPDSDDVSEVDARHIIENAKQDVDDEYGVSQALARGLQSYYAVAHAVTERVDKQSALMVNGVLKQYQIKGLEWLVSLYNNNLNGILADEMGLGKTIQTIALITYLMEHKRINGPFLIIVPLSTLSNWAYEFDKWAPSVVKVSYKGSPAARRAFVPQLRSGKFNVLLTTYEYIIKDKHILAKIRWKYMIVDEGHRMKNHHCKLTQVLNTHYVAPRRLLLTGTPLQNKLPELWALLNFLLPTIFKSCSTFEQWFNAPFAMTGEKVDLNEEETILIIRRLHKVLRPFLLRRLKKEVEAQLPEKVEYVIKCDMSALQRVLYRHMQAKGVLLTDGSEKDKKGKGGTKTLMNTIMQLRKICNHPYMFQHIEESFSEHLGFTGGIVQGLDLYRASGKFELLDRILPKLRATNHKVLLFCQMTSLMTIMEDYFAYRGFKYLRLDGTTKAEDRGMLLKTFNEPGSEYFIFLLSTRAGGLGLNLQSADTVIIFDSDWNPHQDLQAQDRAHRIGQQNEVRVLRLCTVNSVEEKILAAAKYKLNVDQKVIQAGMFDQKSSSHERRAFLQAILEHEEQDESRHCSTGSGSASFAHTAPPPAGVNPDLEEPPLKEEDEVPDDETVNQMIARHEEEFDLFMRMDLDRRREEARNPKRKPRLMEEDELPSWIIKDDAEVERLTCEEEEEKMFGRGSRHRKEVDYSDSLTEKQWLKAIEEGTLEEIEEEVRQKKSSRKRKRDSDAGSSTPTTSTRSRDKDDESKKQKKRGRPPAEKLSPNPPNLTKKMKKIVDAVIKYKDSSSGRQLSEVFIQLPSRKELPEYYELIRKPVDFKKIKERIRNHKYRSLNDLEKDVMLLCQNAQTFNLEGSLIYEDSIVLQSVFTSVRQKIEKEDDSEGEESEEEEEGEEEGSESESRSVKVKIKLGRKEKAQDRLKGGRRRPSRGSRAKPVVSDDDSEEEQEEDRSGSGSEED
- test_name: ATPase catalytic activity of BRG-1, ADP-Glo in vitro biochemical assay
- experimental_context: ATPase catalytic activity, 30 nM BRG-1, 400 μM ATP, read-out: BRG1 IP50 (μM)*
experimental_readout: IC50

CC(=O)n1ccc(C(=O)NCC(=O)Nc2nc(-c3cccc(-c4ccncc4)c3)cs2)c1 [Compound 50]	> 0.1 µM
Cn1ccc(-c2cccc(-c3csc(NC(=O)CNC(=O)c4ccn(C(C)(C)C)c4)n3)c2)n1 [Compound 58]	> 0.01 µM
CC(C)[C@H](NC(=O)c1ccn(S(C)(=O)=O)c1)C(=O)Nc1nc(-c2cccc(-c3ccncc3)c2)cs1 [Compound 73]	> 0.01 µM

Kindly review the next molecule as well.
Returns the measured IC50 for the input molecule. Input: CS(=O)(=O)n1ccc(C(=O)NCC(=O)Nc2nc(-c3cccc(-c4ccncc4)c3)cs2)n1 [Compound 45] < 0.01 µM
